So I've got a bunch of molecules here, and I need their growth inhibition values.
- Assay Info: NCI Yeast Anticancer Drug Screen. Data for the bub3 strain (AID 167)
- Run Conditions: S. cerevisiae bub3 mutant strain, at 50.0 µM (retest, dose inferred, filed as 5.0), hits give high values
- Procedure: Growth inhibition of yeast strains with defined genetic alterations is measured as a screen for potential anti-cancer activity. Selected strains with alterations in DNA damage repair or cell cycle control were exposed to compounds and growth inhibition was measured relative to vehicle treated controls. The strain used in this assay is bub3
This is part of a sample that, as a whole, favours compounds with a hit. Of some 79,000 tested, about 15% had one in any assay. Calls of active or inactive are those of the source. Cut-off read from the data, not from the text of the source: active = growth inhibition above about 70%; inactive = the rest.

* O=C(CNC(=O)c1ccccc1)NNc1ccccc1 | 89% (active)
* Cc1ccc(S(=O)(=O)Oc2ccc3oc4c(CO)ccc(NCCN(C)C)c4c(=O)c3c2)cc1 | 4% (inactive)
* CCCNC(=O)OCc1ccc(NCCN(CC)CC)c2c(=O)c3ccccc3sc12 | 10% (inactive)
* c1ccc(N/N=C(/CC/C(=N\Nc2ccccc2)c2ccccc2)c2ccccc2)cc1 | 89% (active)

Okay, now this molecule:
Req: Requested field: growth inhibition. Item: CC(C(O)c1ccccc1)C(O)(C(F)(F)F)C(F)(F)F (stereo not given)
Resp: -7% (inactive)
